Value source: BindingDB's records for doi:10.1021/jm025595i

experiment: Compound was evaluated for its inhibitory activity in a calcineurin inhibition assay
parameter measured: pIC50
Bear in mind: pIC50 is minus log10 of a mol/L concentration; give just that figure.

Here's what some known entries look like.
smiles: CCOC(=O)CCC[C@@H](C)[C@@H](O)[C@H]1C(=O)N[C@@H](CC)C(=O)N(C)CC(=O)N(C)[C@@H](CC(C)C)C(=O)N[C@@H](C(C)C)C(=O)N(C)[C@@H](CC(C)C)C(=O)N[C@@H](C)C(=O)N[C@H](C)C(=O)N(C)[C@@H](CC(C)C)C(=O)N(C)[C@@H](CC(C)C)C(=O)N(C)[C@@H](C(C)C)C(=O)N1C
parameter measured: pIC50
reading: 6.08
--
smiles: CC[C@@H]1NC(=O)[C@H]([C@H](O)[C@H](C)CCCC(=O)OCCF)N(C)C(=O)[C@H](C(C)C)N(C)C(=O)[C@H](CC(C)C)N(C)C(=O)[C@H](CC(C)C)N(C)C(=O)[C@@H](C)NC(=O)[C@H](C)NC(=O)[C@H](CC(C)C)N(C)C(=O)[C@H](C(C)C)NC(=O)[C@H](CC(C)C)N(C)C(=O)CN(C)C1=O
parameter measured: pIC50
reading: 5.81
--
smiles: CCOC(=O)/C=C/C[C@@H](C)[C@@H](O)[C@H]1C(=O)N[C@@H](CC)C(=O)N(C)CC(=O)N(C)[C@@H](CC(C)C)C(=O)N[C@@H](C(C)C)C(=O)N(C)[C@@H](CC(C)C)C(=O)N[C@@H](C)C(=O)N[C@H](C)C(=O)N(C)[C@@H](CC(C)C)C(=O)N(C)[C@@H](CC(C)C)C(=O)N(C)[C@@H](C(C)C)C(=O)N1C
parameter measured: pIC50
reading: 6.44
--
smiles: CC[C@@H]1NC(=O)[C@H]([C@H](O)[C@H](C)C/C=C/C(=O)OCCF)N(C)C(=O)[C@H](C(C)C)N(C)C(=O)[C@H](CC(C)C)N(C)C(=O)[C@H](CC(C)C)N(C)C(=O)[C@@H](C)NC(=O)[C@H](C)NC(=O)[C@H](CC(C)C)N(C)C(=O)[C@H](C(C)C)NC(=O)[C@H](CC(C)C)N(C)C(=O)CN(C)C1=O
parameter measured: pIC50
reading: 6.20
--
smiles: CC[C@@H]1NC(=O)[C@H]([C@H](O)[C@H](C)C/C=C/C(=O)OC)N(C)C(=O)[C@H](C(C)C)N(C)C(=O)[C@H](CC(C)C)N(C)C(=O)[C@H](CC(C)C)N(C)C(=O)[C@@H](C)NC(=O)[C@H](C)NC(=O)[C@H](CC(C)C)N(C)C(=O)[C@H](C(C)C)NC(=O)[C@H](CC(C)C)N(C)C(=O)CN(C)C1=O
parameter measured: pIC50
reading: 6.24

Moving on to the next compound.
### Prompt For the compound CC[C@@H]1NC(=O)[C@H]([C@H](O)[C@H](C)CCCC(=O)OC)N(C)C(=O)[C@H](C(C)C)N(C)C(=O)[C@H](CC(C)C)N(C)C(=O)[C@H](CC(C)C)N(C)C(=O)[C@@H](C)NC(=O)[C@H](C)NC(=O)[C@H](CC(C)C)N(C)C(=O)[C@H](C(C)C)NC(=O)[C@H](CC(C)C)N(C)C(=O)CN(C)C1=O , what pIC50 is on record?
### Response 6.05
